# tested_on: Cytochrome P450 2C19 (Homo sapiens)
# procedure_text: Cytochrome panel assay with activity outcomes
# condition_parameters: recombinant CYP, pro-luciferin dealkylation, luminescence, p450-cyp2c19; series mostly up to 57.1 µM
Among all 16,000 compounds or so, about 5,800 (36%) were called active. Not shown: some 23% with an inconclusive outcome. The call rests on the fitted dose curve; in most records, active means well fitted curve in the direction sought with a large enough effect; inconclusive means small, poorly fitted or top-dose-only effect, or effect the other way; inactive means no such curve, though single readings can be large or run the other way. This is one part of the list.
Thanks in advance; please answer with one of these: active, inactive

Below are worked cases with known answers.
C=CCN1CC[C@]23c4c5ccc(O)c4O[C@@H]2/C(=N/NC(=O)c2ccccc2)CC[C@@]3(O)[C@H]1C5: inactive
Cc1sc2c(c1C)C(c1ccc(C(C)(C)C)cc1)=NCC(=O)N2CC(=O)Nc1nccs1: active
c1ccc(N2CC[C@@]3(CCCNC3)C2)nc1: inactive
O=C1NCN(c2ccccc2)C12CCN(C[C@H]1COc3ccccc3O1)CC2: active
C=C(CC1(CNP(=O)(c2ccccc2)c2ccccc2)CC1)c1ccccc1: inactive
CC(=O)NCCc1c[nH]c2ccccc12: active
O=C(CCCN1CCC(n2c(=O)[nH]c3ccccc32)CC1)c1ccc(F)cc1: inactive
NCCc1c[nH]c2ccccc12: inactive
O=C1NCN(c2ccccc2)C12CCN(CCCOc1ccc(F)cc1)CC2: inactive

Turning now to a further molecule:
Lab log entry: C[C@@H](O)CN(CCN(C[C@@H](C)O)C[C@@H](C)O)C[C@@H](C)O.O=[N+]([O-])O.[Cu] — outcome as called in the assay?
active

* * *

# tested_on: Cytochrome P450 2C19 (Homo sapiens) (UniProt P33261)
# Sequence (P33261 whole entry, looked up): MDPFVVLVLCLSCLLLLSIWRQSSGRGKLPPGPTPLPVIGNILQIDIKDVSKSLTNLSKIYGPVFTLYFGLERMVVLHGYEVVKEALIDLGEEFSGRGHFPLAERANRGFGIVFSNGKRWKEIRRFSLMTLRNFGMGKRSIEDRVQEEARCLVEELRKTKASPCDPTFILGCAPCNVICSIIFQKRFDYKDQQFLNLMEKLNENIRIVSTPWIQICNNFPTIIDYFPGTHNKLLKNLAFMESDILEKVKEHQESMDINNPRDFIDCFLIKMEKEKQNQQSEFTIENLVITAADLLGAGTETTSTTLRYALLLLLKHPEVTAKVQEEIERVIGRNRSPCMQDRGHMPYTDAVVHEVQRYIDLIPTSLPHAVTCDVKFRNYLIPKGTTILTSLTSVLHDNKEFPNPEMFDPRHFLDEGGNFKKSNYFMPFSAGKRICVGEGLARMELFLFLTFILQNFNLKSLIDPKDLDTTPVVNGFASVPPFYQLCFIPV
# procedure_text: Cytochrome panel assay with activity outcomes
# condition_parameters: recombinant CYP, pro-luciferin dealkylation, luminescence, p450-cyp2c19; series mostly up to 57.1 µM
# Description: The P450 gene superfamily is involved in the metabolism and clearance of xenobiotics. This assay used various human CYP P450 isozymes to measure the dealkylation of various pro-luciferin substrates to luciferin. The luciferin is then measured by luminescence after the addition of a luciferase detection reagent. […] Inhibitors and some substrates limit the production of luciferin, and decrease measured luminescence. […] 8, Detection, 1 sec, ViewLux luminescent read […]
Hit rate of the full screen: of about 16,000 compounds, about 5,800 (36%) were called active. About 23% were inconclusive and are not listed. Calls follow the shape of the dose curve; as a rule, active = well fitted curve in the direction sought with a large enough effect; inconclusive = small, poorly fitted or top-dose-only effect, or effect the other way; inactive = no such curve, though single readings can be large or run the other way. The list shows a part of the results.
Thanks in advance; please answer with one of these: 1.0 (active), 0.0 (inactive)

CC(O)(CS(=O)(=O)c1ccccc1)C(=O)Nc1cccc(C(F)(F)F)c1 (centres undefined): 1.0
CN(C)[C@H]1C(=O)C(C(N)=O)=C(O)[C@]2(O)C(=O)C3=C(O)c4c(O)cccc4[C@@](C)(O)[C@H]3C[C@@H]12: 0.0
C=CCN1CC[C@@]23c4c5ccc(O)c4O[C@H]2/C(=N\N=C2/CC[C@@]4(O)[C@H]6Cc7ccc(O)c8c7[C@@]4(CCN6CC=C)[C@@H]2O8)CC[C@]3(O)[C@@H]1C5: 0.0

Lab log entry: Nc1nc(N)c2nc(CNc3ccc(C(=O)N[C@H](CCC(=O)O)C(=O)O)cc3)cnc2n1 — outcome as called in the assay?
0.0

* * *

# tested_on: Cytochrome P450 2C19 (Homo sapiens)
# procedure_text: Cytochrome panel assay with activity outcomes
# condition_parameters: recombinant CYP, pro-luciferin dealkylation, luminescence, p450-cyp2c19; series mostly up to 57.1 µM
About 5,800 (36%) of roughly 16,000 compounds were called active. Inconclusive results (about 23%) are left out. Calls come from the whole dose curve; as a rule, active = well fitted curve in the direction sought with a large enough effect; inconclusive = small, poorly fitted or top-dose-only effect, or effect the other way; inactive = no such curve, though single readings can be large or run the other way. Some of the results follow.
Thanks in advance; please answer with one of these: active, inactive

CC(C)N[C@@H](C)Cc1ccc(I)cc1: inactive
c1csc(CN2CCC3(CCNCC3)CC2)n1: inactive
CC(=O)[C@@H]1CC[C@@H]2[C@@H]3CCC4=CC(=O)CC[C@@]4(C)[C@H]3CC[C@]21C: inactive
CN1CCN(c2ccc([N+](=O)[O-])c(N/N=C3\CN4CCC3CC4)c2)CC1: active
COc1ccc2c3c1O[C@@H]1C(=O)CC[C@@]4(O)[C@@H](C2)N(CC2CC2)CC[C@]314: inactive

Turning now to a further compound:
Lab log entry: CCOC(=O)c1ncn2c1CN(C)C(=O)c1cc(F)ccc1-2 — outcome as called in the assay?
active
